Collected from the literature: IC50 of various compounds toward Tyrosine-protein phosphatase non-receptor type 2 (Homo sapiens).
Molecular target: Tyrosine-protein phosphatase non-receptor type 2 (Homo sapiens)
Sequence (P17706 whole entry): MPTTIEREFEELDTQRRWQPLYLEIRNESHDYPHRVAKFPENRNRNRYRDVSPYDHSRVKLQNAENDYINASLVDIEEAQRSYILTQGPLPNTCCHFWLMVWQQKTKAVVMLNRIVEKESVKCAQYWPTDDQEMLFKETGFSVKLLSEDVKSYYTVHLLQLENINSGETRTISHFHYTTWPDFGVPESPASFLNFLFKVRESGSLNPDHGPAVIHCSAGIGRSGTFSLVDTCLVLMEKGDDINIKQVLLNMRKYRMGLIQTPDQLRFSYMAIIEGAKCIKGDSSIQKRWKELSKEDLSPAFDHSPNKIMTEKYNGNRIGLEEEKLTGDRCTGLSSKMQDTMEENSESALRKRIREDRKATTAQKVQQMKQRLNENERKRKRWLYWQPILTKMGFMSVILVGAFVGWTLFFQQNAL
Recorded endpoint: IC50 (µM)

Here's what some known entries look like.
Compound | IC50, µM
O=C1CC(c2ccc(CC(NS(=O)(=O)c3cccc(C(F)(F)F)c3)c3ncc(CCCCc4ccccc4)[nH]3)cc2)S(=O)(=O)N1 (stereo not given) | 0.16
CC1(C)CC[C@]2(CCCCC(=O)NC(Cc3ccc(Cl)cc3)C(=O)O)CC[C@]3(C)C(=CC[C@@H]4[C@@]5(C)CC[C@H](O)C(C)(C)[C@@H]5CC[C@]43C)[C@@H]2C1 (stereo not given in full) | 0.48
CC1(C)CC[C@]2(CCCCC(=O)NC(Cc3ccc4c(c3)OCO4)C(=O)O)CC[C@]3(C)C(=CC[C@@H]4[C@@]5(C)CC[C@H](O)C(C)(C)[C@@H]5CC[C@]43C)[C@@H]2C1 (stereo not given in full) | 0.6
COC(c1ccc(C)cc1)c1cnn2c(-c3ccccc3)cc3c(Cl)cccc3c12 (stereo not given) | 4.5
CCOc1cc(NS(C)(=O)=O)c(OCC)cc1CNC(=O)Nc1ccc(OCC)c(C(=O)OC)c1 | 0.67
CC1(C)CC[C@]2(C(=O)O)CC[C@]3(C)C(=CC[C@@H]4[C@@]5(C)Cc6c([nH]c7ccccc67)C(C)(C)[C@@H]5CC[C@]43C)[C@@H]2C1 | 1.6
O=C(O)c1cc(/C=C/c2ccc(/C=C/c3ccc(O)c(C(=O)O)c3)cc2)ccc1O | 27
O=C(O)[C@@H](Cc1ccccc1)N1C(=O)/C(=C/c2cn(-c3ccccc3)nc2-c2ccc3ccccc3c2)SC1=S | 4.61
O=C(O)CCCN1C(=O)/C(=C/c2cn(-c3ccccc3)nc2-c2ccc(Cl)cc2Cl)SC1=S | 9.18

a = C[C@H](OCc1cn([C@@H]2O[C@H](COCc3ccccc3)[C@@H](OCc3ccccc3)[C@H](OCc3ccccc3)[C@H]2OCc2ccccc2)nn1)[C@H](NC(=O)OC(C)(C)C)C(=O)O
b = O=C(Nc1ccc(-c2ccc(NC(=O)c3ccccc3)cn2)cc1)c1ccccc1
Form: Entry with minimum IC50 (choose one): a / b Could you answer with the label of the item you picked?
b
